The measurements presented in this section are drawn from ChEMBL document CHEMBL4680353.

A collection of compounds and their measured IC50
METHOD_NOTES: cells
Format: functional, cell-based
TEST_CONDITIONS: Homo sapiens, LoVo/DX, 72 h
Hey, just the number and the unit after it is fine.

Here are 5 compounds together with their reported answers.
SMILES_STRING	IC50
CCC(=O)N[C@H]1CCc2cc(OC)c(OC)c(OC)c2-c2ccc(SC)c(=O)cc21	163 nM
COCC(=O)N[C@H]1CCc2c(I)c(OC)c(OC)c(OC)c2-c2ccc(SC)c(=O)cc21	92.2 nM
COc1cccc2c1C(=O)c1c(O)c3c(c(O)c1C2=O)C[C@@](O)(C(=O)CO)C[C@@H]3O[C@H]1C[C@H](N)[C@H](O)[C@H](C)O1	4750 nM
CCC(=O)N[C@H]1CCc2c(I)c(OC)c(OC)c(OC)c2-c2ccc(SC)c(=O)cc21	168 nM
COc1c(I)c2c(c(OC)c1OC)-c1ccc(SC)c(=O)cc1[C@@H](NC(=O)C(C)C)CC2	91.3 nM

Enquiry: Please report the measured IC50 for `CCN(CC)C(=O)N[C@H]1CCc2cc(OC)c(OC)c(OC)c2-c2ccc(SC)c(=O)cc21`
Return: 1100 nM

Enquiry: Look up and state reported IC50 for `COc1c(I)c2c(c(OC)c1OC)-c1ccc(OC)c(=O)cc1[C@@H](NC(C)=O)CC2`
Return: 2780 nM

Enquiry: # return recorded IC50 for entry `CCCCCCCCCC(=O)N[C@H]1CCc2c(I)c(OC)c(OC)c(OC)c2-c2ccc(SC)c(=O)cc21`
Return: 3870 nM
